- System: 556581-035-R-J1-PDC complex spheroid viability;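 further: spheroids exposed to agents for seven days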
- Assay Overview: Anticancer human tumor 556581-035-R-J1-PDC patient-derived ovarian carcinoma cell line growth inhibition; active means viability on the fitted dose curve at most 10% of control; inactive means the rest
- Measurement Context: second compound 3.16 µM; first compound 1 µM
Possible outcomes: active, inactive

{"Compound": "O=C(c1cc(Cc2n[nH]c(=O)c3ccccc23)ccc1F)N1CCN(C(=O)C2CC2)CC1 + NC1CC1c1ccc(-c2cccc(O)c2)cc1", "Assigned Class": "inactive"}
{"Compound": "Nc1ncn(C2CC(O)C(CO)O2)c(=O)n1 (configuration not stated) + NC1CCC(NC2CC2c2ccccc2)CC1", "Assigned Class": "inactive"}
{"Compound": "CC1(C)CCC(CN2CCN(c3ccc(C(=O)NS(=O)(=O)c4ccc(NCC5CCOCC5)c([N+](=O)[O-])c4)c(Oc4cnc5[nH]ccc5c4)c3)CC2)=C(c2ccc(Cl)cc2)C1 + NC1CC1c1ccc(-c2cccc(O)c2)cc1", "Assigned Class": "inactive"}
{"Compound": "CC(C)c1c(-c2ccccc2)nc2c(C#N)c[nH]n2c1=O + NC1CCC(NC2CC2c2ccccc2)CC1", "Assigned Class": "inactive"}
{"Compound": "O=C(c1cc(Cc2n[nH]c(=O)c3ccccc23)ccc1F)N1CCN(C(=O)C2CC2)CC1 + NC1CCC(NC2CC2c2ccccc2)CC1", "Assigned Class": "inactive"}
{"Compound": "O=C(C=Cn1cnc(-c2cc(C(F)(F)F)cc(C(F)(F)F)c2)n1)NNc1cnccn1 + NC1CC1c1ccc(-c2cccc(O)c2)cc1", "Assigned Class": "active"}
{"Compound": "CC1COCCN1c1cc(C2(S(C)(=N)=O)CC2)nc(-c2ccnc3[nH]ccc23)n1 (configuration not stated) + NC1CC1c1ccc(-c2cccc(O)c2)cc1", "Assigned Class": "inactive"}
